DC50 values for the compounds below.
- EXPERIMENTAL SYSTEM: GSPT1 (Homo sapiens, UniProt P15170+Q96SW2)
- Construct: host or cells: HEK293 LgBiT / GSPT1 HiBiT CRISPR knock-in
- Sequence (P15170 whole entry): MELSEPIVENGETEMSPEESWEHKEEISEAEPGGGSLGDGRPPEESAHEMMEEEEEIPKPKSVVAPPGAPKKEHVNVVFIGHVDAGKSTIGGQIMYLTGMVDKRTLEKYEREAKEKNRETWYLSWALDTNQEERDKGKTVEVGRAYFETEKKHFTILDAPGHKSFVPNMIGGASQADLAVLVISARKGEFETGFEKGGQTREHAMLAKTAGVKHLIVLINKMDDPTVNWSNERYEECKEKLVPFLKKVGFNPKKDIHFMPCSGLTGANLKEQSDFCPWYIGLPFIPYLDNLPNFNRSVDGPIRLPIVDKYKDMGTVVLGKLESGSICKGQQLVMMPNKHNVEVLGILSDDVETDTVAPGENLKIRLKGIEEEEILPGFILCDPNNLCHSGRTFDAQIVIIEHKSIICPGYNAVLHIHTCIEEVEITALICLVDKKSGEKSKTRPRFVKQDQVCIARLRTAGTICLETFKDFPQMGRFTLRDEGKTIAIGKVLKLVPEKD
- Sequence (Q96SW2 whole entry): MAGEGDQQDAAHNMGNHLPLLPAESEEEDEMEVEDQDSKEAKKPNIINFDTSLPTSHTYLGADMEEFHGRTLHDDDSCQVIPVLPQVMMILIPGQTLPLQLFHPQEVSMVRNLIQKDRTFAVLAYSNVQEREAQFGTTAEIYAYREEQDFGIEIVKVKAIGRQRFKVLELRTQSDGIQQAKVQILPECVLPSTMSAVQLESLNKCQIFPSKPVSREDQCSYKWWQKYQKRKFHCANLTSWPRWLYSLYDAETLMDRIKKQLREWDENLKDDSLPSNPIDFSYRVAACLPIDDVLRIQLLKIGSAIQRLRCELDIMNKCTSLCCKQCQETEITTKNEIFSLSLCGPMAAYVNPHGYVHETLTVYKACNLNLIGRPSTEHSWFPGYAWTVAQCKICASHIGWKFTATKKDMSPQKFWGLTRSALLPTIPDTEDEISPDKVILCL
- Sequence (Q16531 whole entry partner): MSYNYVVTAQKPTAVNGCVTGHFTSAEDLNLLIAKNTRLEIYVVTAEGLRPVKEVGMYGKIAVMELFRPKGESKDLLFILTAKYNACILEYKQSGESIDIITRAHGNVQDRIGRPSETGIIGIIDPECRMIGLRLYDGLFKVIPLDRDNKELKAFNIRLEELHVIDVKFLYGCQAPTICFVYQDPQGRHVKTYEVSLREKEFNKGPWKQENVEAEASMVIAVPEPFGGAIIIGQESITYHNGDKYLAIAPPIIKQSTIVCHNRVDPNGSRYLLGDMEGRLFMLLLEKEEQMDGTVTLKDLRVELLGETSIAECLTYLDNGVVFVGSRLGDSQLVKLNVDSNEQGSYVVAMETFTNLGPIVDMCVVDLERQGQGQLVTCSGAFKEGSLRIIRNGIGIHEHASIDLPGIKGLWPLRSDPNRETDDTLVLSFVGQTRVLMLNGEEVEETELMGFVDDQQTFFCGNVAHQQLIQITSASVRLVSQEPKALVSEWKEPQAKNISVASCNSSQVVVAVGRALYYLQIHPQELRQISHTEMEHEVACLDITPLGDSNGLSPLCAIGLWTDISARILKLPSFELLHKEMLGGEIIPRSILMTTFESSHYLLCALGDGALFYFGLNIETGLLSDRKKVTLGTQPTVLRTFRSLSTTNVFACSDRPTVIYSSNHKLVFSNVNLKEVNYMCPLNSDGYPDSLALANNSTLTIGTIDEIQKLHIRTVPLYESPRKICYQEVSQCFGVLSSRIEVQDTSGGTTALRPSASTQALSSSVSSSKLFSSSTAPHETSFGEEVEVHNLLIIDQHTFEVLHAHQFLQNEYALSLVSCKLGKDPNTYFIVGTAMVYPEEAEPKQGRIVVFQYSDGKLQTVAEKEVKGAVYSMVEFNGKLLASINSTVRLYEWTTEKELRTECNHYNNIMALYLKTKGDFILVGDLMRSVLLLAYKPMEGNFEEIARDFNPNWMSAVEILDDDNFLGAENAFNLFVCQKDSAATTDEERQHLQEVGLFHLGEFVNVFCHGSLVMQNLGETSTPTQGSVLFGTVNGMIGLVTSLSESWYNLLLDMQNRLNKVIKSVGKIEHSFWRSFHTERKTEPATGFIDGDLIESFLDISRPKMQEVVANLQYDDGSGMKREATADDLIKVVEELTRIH
- PROTOCOL: GSPT1 HiBiT degradation assay
- Assay type: cell-based
- PROTOCOL CONDITIONS: HEK293 LgBiT GSPT1 HiBiT cells, 6 hours

# example entries with known answers
- C=C(CN(C(=O)NCc1ccc2c(c1)CN(C1CCC(=O)NC1=O)C2=O)c1ccc(C)c(Cl)c1)C(=O)N[C@@H]1CN(c2nc(Nc3cn(C)nc3OC)c3ncn(C)c3n2)C[C@H]1F (stereo partly drawn): > 2500 nM
- C=C(COc1c(F)cc(CN2C(=O)CCC(N3Cc4cc(CNC(=O)Nc5ccc(C)c(Cl)c5)ccc4C3=O)C2=O)cc1F)C(=O)N1CCC[C@@H](n2nc(-c3ccc(Oc4ccccc4)cc3)c3c(N)ncnc32)C1 (stereo partly drawn): > 2500 nM
- C=C(COc1ccc(CN2C(=O)CCC(N3Cc4cc(CNC(=O)Nc5ccc(C)c(Cl)c5)ccc4C3=O)C2=O)cc1)C(=O)N1CCC[C@@H](n2nc(-c3ccc(Oc4ccccc4)cc3)c3c(N)ncnc32)C1 (stereo partly drawn): > 2500 nM
- C=C(COc1cc(Cl)cc(NC(=O)NCc2ccc3c(c2)CN(C2CCC(=O)NC2=O)C3=O)c1)C(=O)Nc1cccc(Oc2nc(Nc3ccc(N4CCN(C)CC4)cc3)nc3ccsc23)c1 (stereo not drawn): 50 to 500 nM
- C=C(CN(C(=O)NCc1ccc2c(c1)CN(C1CCC(=O)NC1=O)C2=O)c1ccc(C)c(Cl)c1)C(=O)N1C[C@@H](COc2nc(Nc3cnn(C)c3)nc3[nH]cc(Cl)c23)[C@H](OC)C1 (stereo partly drawn): 500 to 2500 nM

Prompt: Look up DC50 for this compound: C=C(CN(Cc1ccc2c(c1)CN(C1CCC(=O)NC1=O)C2=O)C(=O)Nc1ccc(C)c(Cl)c1)C(=O)N1CCN(c2nc(OC[C@@H]3CCCN3C)nc3c2CCN(c2cccc4cccc(Cl)c24)C3)C[C@@H]1CC#N (stereo partly drawn)
Completion: > 2500 nM

Prompt: Now give it for C=C(COc1cc(Cl)cc(NC(=O)NCc2ccc3c(c2)CN(C2CCC(=O)NC2=O)C3=O)c1)C(=O)N1CCN(c2ncnc3c(F)c(-c4c(O)cccc4F)c(Cl)cc23)CC1 (stereo not drawn) too.
Completion: 50 to 500 nM

All figures here come from patent US20240408093A1.
